# method.summary: Inhibition of locomotion in mice (locomotion reduction assay, sedation)
# Parameters: species or system ICR mice
# conditions.used: mouse, in vivo, sc, administered subcutaneously, sedative effect
measurement.kind: ED50 (mg/kg)

INSERT INTO results (smiles_data, measurement_kind, result_number) VALUES
  ('CNCCCC[C@@H](NC(=O)[C@@H](CC(C)C)NC(=O)[C@@H](Cc1ccccc1)NC(=O)[C@H](N)Cc1ccccc1)C(=O)N1CCC(N)(C(=O)O)CC1', 'ED50', 2.69);

====

# method.summary: Pharmacokinetics in ICR mice after subcutaneous injection
# conditions.used: mouse, in vivo, sc, 1 mg/kg, time for plasma concentration to fall by 50% after maximum
measurement.kind: half-life (min)

INSERT INTO measurements (smiles_data, result_number) VALUES
  ('CNCCCC[C@@H](NC(=O)[C@@H](CC(C)C)NC(=O)[C@@H](Cc1ccccc1)NC(=O)[C@H](N)Cc1ccccc1)C(=O)N1CCC(N2CCC[C@H]2C(=O)O)CC1', 22);

====

# method.summary: Membrane permeability assay, Caco-2 TC7 monolayers, apical-to-basolateral (Cerep)
# conditions.used: human
measurement.kind: Papp A→B at 60 min, 10 uM

INSERT INTO assay_data (molecule, result) VALUES
  ('CNCCCC[C@@H](NC(=O)[C@@H](CC(C)C)NC(=O)[C@@H](Cc1ccccc1)NC(=O)[C@H](N)Cc1ccccc1)C(=O)N1CCC(N)(C(=O)O)CC1 [Compound (3)]', '< 0.02 ×10⁻⁶ cm/s'),
  ('CNCCCC[C@@H](NC(=O)[C@@H](CC(C)C)NC(=O)[C@@H](Cc1ccccc1)NC(=O)[C@H](N)Cc1ccccc1)C(=O)N1CCC(N2CCC[C@H]2C(=O)O)CC1 [Compound (6)]', '< 0.02 ×10⁻⁶ cm/s'),
  ('CNCCCC[C@@H](NC(=O)[C@@H](CC(C)C)NC(=O)[C@@H](Cc1ccccc1)NC(=O)[C@H](N)Cc1ccccc1)C(=O)N1CCCN(C(=N)N)CC1 [Compound (1)]', '< 0.1 ×10⁻⁶ cm/s'),
  ('CN(C(=O)C(c1ccccc1)c1ccccc1)[C@H](CN1CC[C@H](O)C1)c1ccccc1 [Asimadoline, asimadoline, reference compound]', '37.5 ×10⁻⁶ cm/s');

====

# method.summary: Pharmacokinetics in cynomolgus monkeys after intravenous bolus
# conditions.used: cynomolgus monkey, in vivo
measurement.kind: half-life (min)

INSERT INTO assay_data (smiles_data, result_number) VALUES
  ('CNCCCC[C@@H](NC(=O)[C@@H](CC(C)C)NC(=O)[C@@H](Cc1ccccc1)NC(=O)[C@H](N)Cc1ccccc1)C(=O)N1CCC(N2CCC[C@H]2C(=O)O)CC1', 58.6);

====

# Papp A→B at 60 min, 10 uM listing for each entry below
# method.summary: in vitro
# conditions.used: human, Caco-2
measurement.kind: Papp A→B at 60 min, 10 uM (×10⁻⁶ cm/s)

INSERT INTO measurements (compound, censoring_operator, result_number) VALUES
  ('CC(CCc1ccccc1)NCC(O)c1ccc(O)c(C(N)=O)c1 (stereo not drawn)', '=', 9.9),
  ('CC[C@]1(O)C[C@@H]2CN(CCc3c([nH]c4ccccc34)[C@@](C(=O)OC)(c3cc4c(cc3OC)N(C)[C@H]3[C@@](O)(C(=O)OC)[C@H](OC(C)=O)[C@]5(CC)C=CCN6CC[C@]43[C@@H]65)C2)C1', '<', 0.2),
  ('CC(C)NCC(O)COc1cccc2ccccc12 (stereo not drawn)', '=', 53.8);
